Where do these numbers come from? They come from ChEMBL document CHEMBL1201862.

biological target: Corticotropin-releasing factor receptor 2/Corticotropin-releasing factor-binding protein (Homo sapiens, UniProt P24387+Q13324); test: Dose Response confirmation of uHTS hits for small molecule antagonists of the CRF-binding protein and CRF-R2 receptor complex.; format: functional; conditions: read-out: IC50_Mean
Sequence (Q13324 whole entry): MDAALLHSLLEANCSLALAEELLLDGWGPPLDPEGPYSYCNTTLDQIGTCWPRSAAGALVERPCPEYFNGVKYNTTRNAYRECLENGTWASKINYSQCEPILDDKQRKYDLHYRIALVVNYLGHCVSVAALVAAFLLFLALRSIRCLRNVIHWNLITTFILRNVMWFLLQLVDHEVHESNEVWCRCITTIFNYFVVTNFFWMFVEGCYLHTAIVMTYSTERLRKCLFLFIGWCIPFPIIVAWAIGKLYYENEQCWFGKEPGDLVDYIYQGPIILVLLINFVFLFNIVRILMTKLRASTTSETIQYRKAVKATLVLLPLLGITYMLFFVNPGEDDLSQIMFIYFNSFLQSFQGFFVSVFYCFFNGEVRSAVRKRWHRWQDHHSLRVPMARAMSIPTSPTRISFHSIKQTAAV
Sequence (P24387 whole entry): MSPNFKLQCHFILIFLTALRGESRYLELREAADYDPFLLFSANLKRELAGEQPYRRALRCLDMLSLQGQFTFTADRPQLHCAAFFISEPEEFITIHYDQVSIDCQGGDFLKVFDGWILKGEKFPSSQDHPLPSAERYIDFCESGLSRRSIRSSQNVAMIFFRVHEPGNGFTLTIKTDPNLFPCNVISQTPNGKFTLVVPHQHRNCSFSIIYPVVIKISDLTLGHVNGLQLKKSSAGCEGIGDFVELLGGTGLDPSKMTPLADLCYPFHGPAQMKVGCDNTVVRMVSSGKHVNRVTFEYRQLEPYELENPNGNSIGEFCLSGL
Active and inactive are the calls of the source.
Give your call using only these classes: TRUE = active, FALSE = inactive

[in] Please state the recorded outcome for this molecule: COc1ccc(CNC(=O)Nc2cccs2)cc1OC
[out] FALSE

[in] Then Cc1ccc(/C=N/NC(=S)Nc2cccc(S(=O)(=O)N(C)C)c2)o1 ?
[out] FALSE

[in] Then Cc1ccc(OCCC(=O)O)cc1 ?
[out] FALSE

[in] Then COc1ccc(/C=C2\SC(NS(=O)(=O)c3cccs3)=NC2=O)cc1 ?
[out] TRUE

[in] Then COc1ccc(CNC(=O)CN(C)S(=O)(=O)c2ccc3c(c2)n(C)c(=O)c(=O)n3C)cc1 ?
[out] FALSE

Lab note: next molecule to report on.
[in] Please state the recorded outcome for this molecule: O=C(COC(=O)c1cc2ccccc2cc1O)NC1CCCCC1
[out] FALSE

====

assay: Trypanosoma cruzi growth suppression in host cells – NIH3T3 host cells, beta-gal luminescence, confirmation (AID 2044); assay type: functional, cell-based;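 also: intracellular parasites grown in NIH/3T3 mouse fibroblasts as host cells; luminescent beta-galactosidase reporter signal from transgenic T. cruzi replicating inside host cells; inhibitors lower the luminescence signal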
Calls of active or inactive are those of the source.
The entries below come with measured EC50 values attached.

The following compounds have reported results that may help.
[in] # get_value(readout='EC50', item= CC(C)c1ccc(C(=O)NCCCN(C)C)cc1 )
[out] 1270 nM (active)

[in] Then CC1=C(C(N)=O)C(c2cccnc2)n2nc(-c3cccc(C)c3)nc2N1 (stereo not given) ?
[out] > 60000 nM (not active)

[in] Then Cc1nn2c(N3CCN(C)CC3)cc(C(C)(C)C)nc2c1-c1ccccc1 ?
[out] 145 nM (active)

[in] Then O=c1c2ccc([N+](=O)[O-])cc2ncn1CCOc1ccc(Cl)cc1 ?
[out] 145 nM (active)

Others:
[in] # get_value(readout='EC50', item= O=[N+]([O-])c1nn(-c2ccc3c(c2)OCCO3)[n+]([O-])c1NC1CCCCCC1 )
[out] 681 nM (active)
